- Tested system: human mAChRM1 (Homo sapiens)
- Construct: host or cells: CHO-K1
- Sequence (P11229 whole entry): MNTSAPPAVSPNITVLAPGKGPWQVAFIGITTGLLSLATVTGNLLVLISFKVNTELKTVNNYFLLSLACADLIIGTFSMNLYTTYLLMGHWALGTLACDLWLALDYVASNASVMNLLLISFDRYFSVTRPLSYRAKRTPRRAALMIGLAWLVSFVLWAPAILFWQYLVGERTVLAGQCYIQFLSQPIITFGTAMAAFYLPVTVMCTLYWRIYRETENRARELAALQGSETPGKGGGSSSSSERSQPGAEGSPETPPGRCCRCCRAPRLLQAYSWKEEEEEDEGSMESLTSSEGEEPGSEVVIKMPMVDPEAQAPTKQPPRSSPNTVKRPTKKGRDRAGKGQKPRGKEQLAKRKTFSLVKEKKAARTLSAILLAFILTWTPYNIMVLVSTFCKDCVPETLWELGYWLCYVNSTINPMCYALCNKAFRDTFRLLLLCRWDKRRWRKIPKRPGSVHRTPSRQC
- Experiment notes: mAChR M1 cell-based functional assay (calcium mobilization), positive allosteric modulator activity: increase in the EC20 acetylcholine response
- Test settings: increase in the EC20 acetylcholine response, read-out: PAM Activity Human M1 EC50
pEC50: −log10 of the molar value.
Quantity: pEC50

record_smiles=Cc1cc(-c2cc(C(C)(C)O)c3cn(C)nc3c2)cc(F)c1CN1Cc2ncccc2C1=O comparative_sign=≤ experimental_value=5.00
record_smiles=Cn1cc2c(-c3cc(Cl)c(CN4Cc5cccnc5C4=O)c(C4CC4)c3)ccc(C(C)(C)O)c2n1 comparative_sign== experimental_value=5.88
record_smiles=Cn1cc2c(-c3ccc(CN4Cc5ncccc5C4=O)c(F)c3)cc(C(C)(C)O)cc2n1 comparative_sign== experimental_value=5.89
record_smiles=CC(C)(O)c1ccc(-c2cc(F)c(CN3Cc4ncccc4C3=O)c(C(F)(F)F)c2)cc1 comparative_sign== experimental_value=5.25
record_smiles=Cn1cc2cc(-c3cc(F)c(CN4Cc5cccc(F)c5C4=O)c(Cl)c3)cc(C(C)(C)O)c2n1 comparative_sign=≤ experimental_value=5.00
record_smiles=CC(C)(O)c1ccc(-c2ccc(CN3Cc4ncccc4C3=O)c(F)c2)c2ccccc12 comparative_sign=≤ experimental_value=5.00
record_smiles=Cc1cc(-c2cc3c(c(C(C)(C)O)c2)OCO3)cc(F)c1CN1Cc2ncccc2C1=O comparative_sign== experimental_value=5.20
record_smiles=CCC(O)(CC)c1ccc(-c2ccc(CN3Cc4ncccc4C3=O)c(F)c2)c2cn(C)nc12 comparative_sign== experimental_value=5.66
record_smiles=Cn1cc2cc(-c3cc(F)c(CN4Cc5cccc(F)c5C4=O)c(F)c3)cc(C(C)(C)O)c2n1 comparative_sign== experimental_value=6.45
record_smiles=Cn1cc2c(-c3ccc(CN4Cc5ncccc5C4=O)nn3)ccc(C(C)(C)O)c2n1 comparative_sign=≤ experimental_value=5.00
record_smiles=Cn1cc2c(-c3cc(F)c(CN4Cc5ncccc5C4=O)c(C4CCCC4)c3)ccc(C(C)(C)O)c2n1 comparative_sign== experimental_value=5.72
record_smiles=[2H]C1([2H])c2ncccc2C(=O)N1Cc1ccc(-c2ccc(C(C)(C)O)c3nn(C)cc23)cc1C(C)C comparative_sign=≤ experimental_value=5.00
record_smiles=CC(C)(O)c1cc(-c2ccc(CN3Cc4ncccc4C3=O)c(F)c2)c2[nH]nnc2c1 comparative_sign=≤ experimental_value=5.00
